EXPERIMENTAL SYSTEM: Ribonucleotide reductase (Homo sapiens, UniProt P23921+Q7LG56)
Sequence (P23921 whole entry, looked up): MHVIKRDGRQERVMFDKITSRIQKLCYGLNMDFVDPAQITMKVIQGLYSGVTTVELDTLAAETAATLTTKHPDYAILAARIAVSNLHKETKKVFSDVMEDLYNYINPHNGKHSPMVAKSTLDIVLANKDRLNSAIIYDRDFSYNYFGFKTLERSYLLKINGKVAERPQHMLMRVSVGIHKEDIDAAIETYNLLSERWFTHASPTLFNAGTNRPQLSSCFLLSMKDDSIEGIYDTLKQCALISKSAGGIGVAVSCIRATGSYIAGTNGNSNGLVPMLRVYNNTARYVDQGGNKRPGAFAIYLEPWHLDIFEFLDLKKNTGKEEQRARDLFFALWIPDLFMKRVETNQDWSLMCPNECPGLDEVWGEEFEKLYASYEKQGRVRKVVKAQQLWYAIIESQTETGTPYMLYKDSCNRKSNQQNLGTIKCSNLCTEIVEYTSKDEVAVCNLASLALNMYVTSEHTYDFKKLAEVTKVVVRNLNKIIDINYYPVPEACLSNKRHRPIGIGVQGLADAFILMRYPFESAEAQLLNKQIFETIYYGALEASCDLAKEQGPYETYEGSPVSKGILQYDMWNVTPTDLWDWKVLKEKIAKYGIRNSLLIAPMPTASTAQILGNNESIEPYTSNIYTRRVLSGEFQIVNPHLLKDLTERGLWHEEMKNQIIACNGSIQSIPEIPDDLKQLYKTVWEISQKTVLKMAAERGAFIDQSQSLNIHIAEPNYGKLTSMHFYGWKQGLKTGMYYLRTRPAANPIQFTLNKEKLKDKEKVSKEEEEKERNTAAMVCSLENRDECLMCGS
Sequence (Q7LG56 whole entry, looked up): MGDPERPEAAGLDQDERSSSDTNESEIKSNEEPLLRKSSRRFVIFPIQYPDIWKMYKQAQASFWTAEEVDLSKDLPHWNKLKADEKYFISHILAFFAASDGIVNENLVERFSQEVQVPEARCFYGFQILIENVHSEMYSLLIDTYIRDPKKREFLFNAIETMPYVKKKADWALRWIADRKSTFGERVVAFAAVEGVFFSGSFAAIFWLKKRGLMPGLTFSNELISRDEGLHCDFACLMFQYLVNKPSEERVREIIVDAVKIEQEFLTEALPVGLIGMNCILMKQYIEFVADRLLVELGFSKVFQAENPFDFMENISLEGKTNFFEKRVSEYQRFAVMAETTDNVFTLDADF
TEST DETAILS: Human RNR Inhibition Effect: The inhibitory activity against the ribonucleotide reduction reaction (hereinafter referred to as RNR reaction) of the test compound was determined by measuring the formation of deoxycytidine diphosphate (hereinafter referred to as dCDP) from cytidine diphosphate (hereinafter referred to as CDP) by the following method.Human M1 subunit and human M2 subunit (mutant …
We begin with a simple list: items and their reported pIC50.
# pIC50 = -log10(concentration in molar units)

Answered cases to consult:
- COMPOUND: "Cc1ccc(F)c([C@@H](C)[C@H](NS(=O)(=O)c2ccc(F)c(C(C)(C)O)c2F)c2n[nH]c(=O)o2)c1C"
  EXPERIMENTAL SYSTEM: "Ribonucleotide reductase (Homo sapiens, UniProt P23921+Q7LG56)"
  pIC50: 7.05
- COMPOUND: "CCc1ccc(F)c([C@@H](C)[C@H](NS(=O)(=O)c2ccc(Cl)c(C(C)O)c2OC)c2n[nH]c(=O)o2)c1C (stereo partly drawn)"
  EXPERIMENTAL SYSTEM: "Ribonucleotide reductase (Homo sapiens, UniProt P23921+Q7LG56)"
  pIC50: 6.82

Request: Would you please give the reported pIC50 of Cc1ccc(F)c([C@@H](C)[C@H](NS(=O)(=O)c2ccc(Cl)cc2C(=O)O)c2n[nH]c(=O)o2)c1C with Ribonucleotide reductase (Homo sapiens, UniProt P23921+Q7LG56)?
Response: 6.74
